- ASSAYED_TARGET: σ1-receptor (Cavia porcellus, UniProt Q60492)
- Construct: guinea pig brains are homogenized; from tissue; host or cells: guinea pig brain membranes
- Sequence (Q60492 whole entry): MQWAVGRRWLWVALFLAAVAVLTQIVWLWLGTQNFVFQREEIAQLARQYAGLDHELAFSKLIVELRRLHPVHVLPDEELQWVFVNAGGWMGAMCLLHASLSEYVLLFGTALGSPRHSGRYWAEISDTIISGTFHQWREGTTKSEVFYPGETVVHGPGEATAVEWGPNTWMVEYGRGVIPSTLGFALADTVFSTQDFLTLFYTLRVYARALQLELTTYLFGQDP
- METHOD: Sigma-1 receptor radioligand binding, [3H](+)-pentazocine, brain membranes
- MEASUREMENT_PARAMETERS: compound concentration 10^−7 M; [3H](+)-pentazocine 0.5 nM; guinea pig brain membranes
Please respond with condition met when measured % Binding σ1 10^−7M is strictly beneath 30%, and with condition not met in all other cases.

Worked examples, 5 compounds total:
> print(dat)
                               smiles.input                            assayed.target  assigned.category
1  CCOC(=O)[C@H](C)N1C[C@@H]2C=C(c3ccccc3)C(=O)[C@@H]2C1  σ1-receptor (Cavia porcellus, UniProt Q60492)  condition not met
2  CCCCC1=C[C@H]2CN([C@@H](C)C(=O)OCC)C[C@H]2C1=O  σ1-receptor (Cavia porcellus, UniProt Q60492)  condition not met
3  CCOC(=O)[C@H](C)N1C[C@H]2C=C(c3ccccc3)C(=O)[C@H]2C1  σ1-receptor (Cavia porcellus, UniProt Q60492)  condition not met
4  COC(=O)[C@H](c1ccccc1)N1C[C@@H]2C=C(c3ccccc3)C(=O)[C@@H]2C1  σ1-receptor (Cavia porcellus, UniProt Q60492)  condition not met
5  CCCCC1=C[C@@H]2CN([C@@H](C)C(=O)OCC)C[C@@H]2C1=O  σ1-receptor (Cavia porcellus, UniProt Q60492)      condition met

# next compound below
Task: A record lists "COC(=O)[C@H](c1ccccc1)N1C[C@H]2C=C(c3ccccc3)C(=O)[C@H]2C1" . Is its % Binding σ1 10^−7M below 30%?
Result: condition not met
